- Tested on: Aphis fabae
- Protocol: Insecticidal activity against Aphis fabae (black bean aphid) infested soybean tender shoots at 0.625 mg/L measured 48 hr post compound dose by modified FAO dip method
- Assay type: functional
Measured parameter: mortality at 0.625 µg/mL (%)

Compound	Assayed target	Output unit	Recorded result
CCC(C)[C@H]1O[C@]2(CC[C@@H]1C)C[C@@H]1C[C@@H](C/C=C(\C)[C@@H](O[C@H]3C[C@H](OC)[C@@H](OC(=O)Nc4cccc(C)c4)[C@H](C)O3)[C@@H](C)/C=C/C=C3\CO[C@@H]4[C@H](O)C(C)=C[C@@H](C(=O)O1)[C@]34O)O2 (some centres undefined)	Aphis fabae	%	88.5
CCC(C)[C@H]1O[C@]2(CC[C@@H]1C)C[C@@H]1C[C@@H](C/C=C(\C)[C@@H](OC(=O)c3cc(F)c(Cl)nc3Cl)[C@@H](C)/C=C/C=C3\CO[C@@H]4[C@H](O)C(C)=C[C@@H](C(=O)O1)[C@]34O)O2 (some centres undefined)	Aphis fabae	%	8.3
CCC(C)[C@H]1O[C@]2(CC[C@@H]1C)C[C@@H]1C[C@@H](C/C=C(\C)[C@@H](O[C@H]3C[C@H](OC)[C@@H](OC(=O)CC(C)(C)C)[C@H](C)O3)[C@@H](C)/C=C/C=C3\CO[C@@H]4[C@H](O)C(C)=C[C@@H](C(=O)O1)[C@]34O)O2 (some centres undefined)	Aphis fabae	%	0
CCC(C)[C@H]1O[C@]2(CC[C@@H]1C)C[C@@H]1C[C@@H](C/C=C(\C)[C@@H](O[C@H]3C[C@H](OC)[C@@H](OC(=O)c4ccccc4)[C@H](C)O3)[C@@H](C)/C=C/C=C3\CO[C@@H]4[C@H](O)C(C)=C[C@@H](C(=O)O1)[C@]34O)O2 (some centres undefined)	Aphis fabae	%	86.3

Reference source for all entries: ChEMBL document CHEMBL3046616
